Target: Amine oxidase [flavin-containing] A (Homo sapiens, UniProt P21397)
Sequence (P21397 whole entry): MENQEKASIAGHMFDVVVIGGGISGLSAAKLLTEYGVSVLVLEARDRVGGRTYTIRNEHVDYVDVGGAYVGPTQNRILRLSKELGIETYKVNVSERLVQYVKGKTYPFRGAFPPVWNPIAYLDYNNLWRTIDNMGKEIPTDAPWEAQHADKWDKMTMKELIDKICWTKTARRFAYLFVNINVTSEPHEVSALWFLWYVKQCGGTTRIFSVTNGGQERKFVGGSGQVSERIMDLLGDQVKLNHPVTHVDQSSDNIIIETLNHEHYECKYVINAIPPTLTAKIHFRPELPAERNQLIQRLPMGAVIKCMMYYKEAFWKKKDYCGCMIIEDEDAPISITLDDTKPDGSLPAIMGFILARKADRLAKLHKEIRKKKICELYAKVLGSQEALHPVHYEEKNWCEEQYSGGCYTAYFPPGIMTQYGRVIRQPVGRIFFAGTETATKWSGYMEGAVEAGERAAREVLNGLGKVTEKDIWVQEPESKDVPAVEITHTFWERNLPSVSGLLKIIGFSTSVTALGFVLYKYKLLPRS
MEASUREMENT_NAME: IC50 (µM)

A selection of reference data follows.
COMPOUND | UNIT_TEXT | IC50
Cc1c(O)cc2oc3ccccc3c(=O)c2c1O | µM | 3.7
COc1ccc2c(=O)c3ccccc3oc2c1O | µM | 18
COc1cc(OC)c2c(=O)c3ccccc3oc2c1 | µM | 20.2
O=c1c2ccccc2oc2ccccc12 [XANTHONE] | µM | 0.84

a. Cc1c(O)c(Br)c2oc3ccccc3c(=O)c2c1O
b. Cc1c(O)c(Cl)c2oc3ccccc3c(=O)c2c1O
c. COc1c(O)cc2oc3c(O)cccc3c(=O)c2c1O
Request: Would you mind ranking these compounds by ascending IC50? I'd appreciate it if you listed the labels in the requested order.
Response: c, a, b
(c: 2.7 µM, a: 14.9 µM, b: 27 µM)
